# remaining activity at 0.1 µM values compiled below
# measurement-target: MLK1/MAP3K9 (Homo sapiens, UniProt P80192)
# Construct: purchased Reaction Biology Corp
# Sequence (P80192 whole entry): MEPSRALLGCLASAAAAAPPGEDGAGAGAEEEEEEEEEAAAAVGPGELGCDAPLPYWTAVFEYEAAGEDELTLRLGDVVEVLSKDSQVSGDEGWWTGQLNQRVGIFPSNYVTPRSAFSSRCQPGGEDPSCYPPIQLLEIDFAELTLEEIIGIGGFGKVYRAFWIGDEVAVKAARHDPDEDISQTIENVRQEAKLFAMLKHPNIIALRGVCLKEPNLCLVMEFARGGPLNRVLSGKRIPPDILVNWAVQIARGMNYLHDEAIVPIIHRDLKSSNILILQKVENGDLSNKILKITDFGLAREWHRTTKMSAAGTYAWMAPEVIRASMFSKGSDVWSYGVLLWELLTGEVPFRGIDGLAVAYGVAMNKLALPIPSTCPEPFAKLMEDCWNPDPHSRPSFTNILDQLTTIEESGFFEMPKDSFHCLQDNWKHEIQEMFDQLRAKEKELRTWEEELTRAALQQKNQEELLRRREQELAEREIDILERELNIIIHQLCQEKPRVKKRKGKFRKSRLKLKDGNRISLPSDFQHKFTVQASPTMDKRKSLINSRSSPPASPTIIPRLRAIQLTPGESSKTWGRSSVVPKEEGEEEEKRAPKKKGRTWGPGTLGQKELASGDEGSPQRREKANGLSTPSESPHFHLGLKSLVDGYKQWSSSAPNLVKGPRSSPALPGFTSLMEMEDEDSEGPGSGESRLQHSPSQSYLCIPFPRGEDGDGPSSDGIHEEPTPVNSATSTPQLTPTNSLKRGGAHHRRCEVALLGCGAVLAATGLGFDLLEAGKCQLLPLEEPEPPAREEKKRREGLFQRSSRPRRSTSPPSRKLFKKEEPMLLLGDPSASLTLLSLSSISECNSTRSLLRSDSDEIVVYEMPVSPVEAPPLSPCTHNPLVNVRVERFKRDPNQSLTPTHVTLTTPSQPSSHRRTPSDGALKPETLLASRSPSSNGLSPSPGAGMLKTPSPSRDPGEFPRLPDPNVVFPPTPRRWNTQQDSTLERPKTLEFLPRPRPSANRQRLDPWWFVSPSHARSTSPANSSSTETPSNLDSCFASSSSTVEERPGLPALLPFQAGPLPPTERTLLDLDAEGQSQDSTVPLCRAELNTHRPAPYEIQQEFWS
# test-method-notes: Radiolabeled ATP kinase assay (Reaction Biology Corp.), MLK1
# Assay type: biochemical
# measurement-conditions: [Cmpd] 0.1 μM; 10 μM ATP; read-out: % Enzyme Activity Remaining (relative to DMSO controls), MLK1/MAP3K9, Data 1
Provide only the numeric value, understood in %.

Past entries and their recorded results:
compound	quantity-name	uom	observed-value
COC(=O)Nc1ccc(-c2c[nH]c3ncc(-c4ccc(CN5CCN(C)CC5)cc4)cc23)cc1 [Compound 7an]	remaining activity at 0.1 µM	%	68.7
CN1CCN(Cc2ccc(-c3cnc4[nH]cc(-c5ccc(S(C)(=O)=O)nc5)c4c3)cc2)CC1 [Compound 7u]	remaining activity at 0.1 µM	%	93.9
CN1CCN(Cc2ccc(-c3cnc4[nH]cc(-c5cccc(NC(=O)NCc6ccco6)c5)c4c3)cc2)CC1 [Compound 7ay]	remaining activity at 0.1 µM	%	88.5

Next compound, please.
Please look up its remaining activity at 0.1 µM: CN1CCN(Cc2ccc(-c3cnc4[nH]cc(-c5ccccc5Cl)c4c3)cc2)CC1 [Compound 7as]
72.7

###

# test-method-notes: In vivo pharmacokinetics, IP injection or oral gavage, 10 mg/kg
# Design: species or system mouse
# measurement-conditions: male, mouse, plasma, ip
# Cmax values compiled below
Don't forget the unit after the number, please.

compound	Cmax
OCCN1CCN(Cc2ccc(-c3cnc4[nH]cc(-c5cccc(Cl)c5)c4c3)cc2)CC1 [Compound 12k]	454 ng/mL

Next compound, please.
Please look up its Cmax: CN1CCN(Cc2ccc(-c3cnc4[nH]cc(-c5ccc6[nH]ccc6c5)c4c3)cc2)CC1 [Compound 1, reference compound]
972 ng/mL

###

# remaining activity at 0.1 µM values compiled below
# measurement-target: panel of 60 human kinases (Homo sapiens)
# Construct: purchased Reaction Biology Corp
# test-method-notes: Radiolabeled ATP kinase assay, panel of 60 kinases (Table S5)
# Format: biochemical
# measurement-conditions: CDK5/p25; 0.1 μM; 10 μM ATP; read-out: % Enzyme Activity (relative to DSMO controls)
Provide only the numeric value, understood in %.

compound	quantity-name	observed-value
CN1CCN(Cc2ccc(-c3cnc4[nH]cc(-c5ccc6c(c5)OCCO6)c4c3)cc2)CC1	remaining activity at 0.1 µM	16.4
CN1CCN(Cc2ccc(-c3cnc4[nH]cc(-c5ccoc5)c4c3)cc2)CC1	remaining activity at 0.1 µM	89.4
CN1CCN(Cc2ccc(-c3cnc4[nH]cc(-c5ccccc5Cl)c4c3)cc2)CC1	remaining activity at 0.1 µM	48.6
COc1ccccc1-c1c[nH]c2ncc(-c3ccc(CN4CCN(C)CC4)cc3)cc12	remaining activity at 0.1 µM	43.1
CN1CCN(Cc2ccc(-c3cnc4[nH]cc(-c5cnn(Cc6ccccc6)c5)c4c3)cc2)CC1	remaining activity at 0.1 µM	52

Please look up its remaining activity at 0.1 µM: `CN1CCN(Cc2ccc(-c3cnc4[nH]cc(-c5ccncc5)c4c3)cc2)CC1`
69.2

Please look up its remaining activity at 0.1 µM: `Cc1nn(C)c(C)c1-c1c[nH]c2ncc(-c3ccc(CN4CCN(C)CC4)cc3)cc12`
93.2

Please look up its remaining activity at 0.1 µM: CN1CCN(Cc2ccc(-c3cnc4[nH]cc(-c5ccc6[nH]ccc6c5)c4c3)cc2)CC1 [Compound 1, reference compound]
52.8

Please look up its remaining activity at 0.1 µM: `CN1CCN(Cc2ccc(-c3cnc4[nH]cc(-c5cccc(Cl)c5)c4c3)cc2)CC1`
84.4

###

# measurement-target: panel of 60 human kinases (Homo sapiens)
# Construct: purchased Reaction Biology Corp
# test-method-notes: Radiolabeled ATP kinase assay, panel of 60 kinases (Table S5)
# Format: biochemical
# measurement-conditions: CLK4; 0.1 μM; 10 μM ATP; read-out: % Enzyme Activity (relative to DSMO controls)
quantity-name: remaining activity at 0.1 µM (%)
Provide only the numeric value, understood in %.

compound	uom	remaining activity at 0.1 µM
CN1CCN(Cc2ccc(-c3cnc4[nH]cc(-c5ccc6c(c5)OCCO6)c4c3)cc2)CC1	%	21.3
CN1CCN(Cc2ccc(-c3cnc4[nH]cc(-c5ccccc5Cl)c4c3)cc2)CC1	%	65.7
CN1CCN(Cc2ccc(-c3cnc4[nH]cc(-c5ccoc5)c4c3)cc2)CC1	%	85.5
CN1CCN(Cc2ccc(-c3cnc4[nH]cc(-c5ccncc5)c4c3)cc2)CC1	%	72.2
CN1CCN(Cc2ccc(-c3cnc4[nH]cc(-c5cnn(Cc6ccccc6)c5)c4c3)cc2)CC1	%	21.8

Lab request: please report remaining activity at 0.1 µM under test system panel of 60 human kinases (Homo sapiens) for `Cc1nn(C)c(C)c1-c1c[nH]c2ncc(-c3ccc(CN4CCN(C)CC4)cc3)cc12`
78.5

Lab request: please report remaining activity at 0.1 µM under test system panel of 60 human kinases (Homo sapiens) for CN1CCN(Cc2ccc(-c3cnc4[nH]cc(-c5ccc6[nH]ccc6c5)c4c3)cc2)CC1 [Compound 1, reference compound]
59.2

Lab request: please report remaining activity at 0.1 µM under test system panel of 60 human kinases (Homo sapiens) for `COc1ccccc1-c1c[nH]c2ncc(-c3ccc(CN4CCN(C)CC4)cc3)cc12`
90.4

Lab request: please report remaining activity at 0.1 µM under test system panel of 60 human kinases (Homo sapiens) for `CN1CCN(Cc2ccc(-c3cnc4[nH]cc(-c5cccc(Cl)c5)c4c3)cc2)CC1`
87.8

###

# measurement-target: HGK/MAP4K4 (Homo sapiens, UniProt O95819)
# Sequence (O95819 whole entry): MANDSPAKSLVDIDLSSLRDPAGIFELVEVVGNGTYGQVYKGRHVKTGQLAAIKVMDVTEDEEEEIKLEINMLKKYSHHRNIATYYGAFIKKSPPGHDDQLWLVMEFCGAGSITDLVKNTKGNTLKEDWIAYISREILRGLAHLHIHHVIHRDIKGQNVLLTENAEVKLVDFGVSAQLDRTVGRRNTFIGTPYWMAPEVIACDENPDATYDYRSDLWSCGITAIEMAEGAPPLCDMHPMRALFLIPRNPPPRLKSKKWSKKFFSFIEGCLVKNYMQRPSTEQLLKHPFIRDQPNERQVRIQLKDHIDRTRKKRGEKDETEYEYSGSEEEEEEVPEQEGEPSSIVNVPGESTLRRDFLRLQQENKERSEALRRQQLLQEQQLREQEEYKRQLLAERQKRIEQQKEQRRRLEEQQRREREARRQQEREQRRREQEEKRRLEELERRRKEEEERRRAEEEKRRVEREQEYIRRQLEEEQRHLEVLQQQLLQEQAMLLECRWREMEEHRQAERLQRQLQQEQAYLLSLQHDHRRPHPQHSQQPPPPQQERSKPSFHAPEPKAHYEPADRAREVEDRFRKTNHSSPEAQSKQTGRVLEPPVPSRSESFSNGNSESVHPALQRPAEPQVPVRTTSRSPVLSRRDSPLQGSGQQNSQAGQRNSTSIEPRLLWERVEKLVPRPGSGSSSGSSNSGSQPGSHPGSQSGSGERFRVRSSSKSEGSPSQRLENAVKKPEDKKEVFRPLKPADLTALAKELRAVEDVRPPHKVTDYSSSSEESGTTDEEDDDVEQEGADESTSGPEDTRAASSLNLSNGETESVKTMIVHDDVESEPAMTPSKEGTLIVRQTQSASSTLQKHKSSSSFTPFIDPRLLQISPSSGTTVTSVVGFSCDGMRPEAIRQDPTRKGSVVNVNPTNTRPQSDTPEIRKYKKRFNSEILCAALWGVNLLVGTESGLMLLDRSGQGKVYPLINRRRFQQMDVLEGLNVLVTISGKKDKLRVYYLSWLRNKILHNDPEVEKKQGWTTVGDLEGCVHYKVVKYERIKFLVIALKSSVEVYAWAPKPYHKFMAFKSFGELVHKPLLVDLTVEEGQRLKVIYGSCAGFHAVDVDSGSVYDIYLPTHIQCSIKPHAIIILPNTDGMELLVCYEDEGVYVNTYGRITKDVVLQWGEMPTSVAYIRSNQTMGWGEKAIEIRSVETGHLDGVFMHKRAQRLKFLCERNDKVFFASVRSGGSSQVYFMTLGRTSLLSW
# test-method-notes: Radiolabeled ATP kinase assay (Reaction Biology Corp.), HGK
# Format: biochemical
# Parameters: purchased Reaction Biology Corp
# measurement-conditions: [Cmpd] 0.025 μM; 10 μM ATP; read-out: % Enzyme Activity (relative to DMSO controls), HGK/MAP4K4, Data 1
Lab note: anything with remaining activity at 0.025 µM below 90% is marked 1 (yes); values at 90% or higher are marked 0 (no).

compound	qualitative-label
CCOc1ccc(-c2c[nH]c3ncc(-c4ccc(CN5CCN(C)CC5)cc4)cc23)cn1	1 (yes)
CN1CCN(Cc2ccc(-c3cnc4[nH]cc(-c5ccc(F)c(C(=O)O)c5)c4c3)cc2)CC1	1 (yes)
CN1CC2CCC(C1)N2Cc1ccc(-c2cnc3[nH]cc(-c4ccc5[nH]ccc5c4)c3c2)cc1 [Compound 12c]	0 (no)
CN1CCN(Cc2ccc(-c3cnc4[nH]cc(-c5ccoc5)c4c3)cc2)CC1	1 (yes)
Cc1cc(-c2c[nH]c3ncc(-c4ccc(CN5CCN(C)CC5)cc4)cc23)cnc1N	1 (yes)

Is remaining activity at 0.025 µM of `CN1CCN(Cc2ccc(-c3cnc4[nH]cc(-c5ccccc5)c4c3)cc2)CC1` strictly below 90%?
1 (yes)

###

# measurement-target: MLK1/MAP3K9 (Homo sapiens, UniProt P80192)
# Construct: purchased Reaction Biology Corp
# test-method-notes: Radiolabeled ATP kinase assay (Reaction Biology Corp.), MLK1
# Assay type: biochemical
# measurement-conditions: [Cmpd] 0.1 μM; 10 μM ATP; read-out: % Enzyme Activity Remaining (relative to DMSO controls), MLK1/MAP3K9, Data 1
quantity-name: remaining activity at 0.1 µM (%)
Provide only the numeric value, understood in %.

Past entries and their recorded results:
sample-smiles	observed-value
CN1CCN(Cc2ccc(-c3cnc4[nH]cc(-c5ccc(CN6CCOCC6)s5)c4c3)cc2)CC1	82.1
CN1CCN(Cc2ccc(-c3cnc4[nH]cc(-c5ccoc5)c4c3)cc2)CC1	76
CN1CCN(Cc2ccc(-c3cnc4[nH]cc(-c5ccccc5)c4c3)cc2)CC1	60.8
COC(=O)Nc1cccc(-c2c[nH]c3ncc(-c4ccc(CN5CCN(C)CC5)cc4)cc23)c1	33.4
CN1CCN(Cc2ccc(-c3cnc4[nH]cc(-c5cnn(Cc6ccccc6)c5)c4c3)cc2)CC1	51.1

Please look up its remaining activity at 0.1 µM: `CN1CCN(Cc2ccc(-c3cnc4[nH]ccc4c3)cc2)CC1`
95.9

Please look up its remaining activity at 0.1 µM: `COc1ccc(COc2ccc(-c3c[nH]c4ncc(-c5ccc(CN6CCN(C)CC6)cc5)cc34)cc2)cc1`
49

Please look up its remaining activity at 0.1 µM: `CN1CCN(Cc2ccc(-c3cnc4[nH]cc(-c5cccc(F)c5)c4c3)cc2)CC1`
57.1

###

# remaining activity at 0.1 µM values compiled below
# measurement-target: panel of 60 human kinases (Homo sapiens, UniProt Q9H2K8)
# Construct: purchased Reaction Biology Corp
# Sequence (Q9H2K8 1-898): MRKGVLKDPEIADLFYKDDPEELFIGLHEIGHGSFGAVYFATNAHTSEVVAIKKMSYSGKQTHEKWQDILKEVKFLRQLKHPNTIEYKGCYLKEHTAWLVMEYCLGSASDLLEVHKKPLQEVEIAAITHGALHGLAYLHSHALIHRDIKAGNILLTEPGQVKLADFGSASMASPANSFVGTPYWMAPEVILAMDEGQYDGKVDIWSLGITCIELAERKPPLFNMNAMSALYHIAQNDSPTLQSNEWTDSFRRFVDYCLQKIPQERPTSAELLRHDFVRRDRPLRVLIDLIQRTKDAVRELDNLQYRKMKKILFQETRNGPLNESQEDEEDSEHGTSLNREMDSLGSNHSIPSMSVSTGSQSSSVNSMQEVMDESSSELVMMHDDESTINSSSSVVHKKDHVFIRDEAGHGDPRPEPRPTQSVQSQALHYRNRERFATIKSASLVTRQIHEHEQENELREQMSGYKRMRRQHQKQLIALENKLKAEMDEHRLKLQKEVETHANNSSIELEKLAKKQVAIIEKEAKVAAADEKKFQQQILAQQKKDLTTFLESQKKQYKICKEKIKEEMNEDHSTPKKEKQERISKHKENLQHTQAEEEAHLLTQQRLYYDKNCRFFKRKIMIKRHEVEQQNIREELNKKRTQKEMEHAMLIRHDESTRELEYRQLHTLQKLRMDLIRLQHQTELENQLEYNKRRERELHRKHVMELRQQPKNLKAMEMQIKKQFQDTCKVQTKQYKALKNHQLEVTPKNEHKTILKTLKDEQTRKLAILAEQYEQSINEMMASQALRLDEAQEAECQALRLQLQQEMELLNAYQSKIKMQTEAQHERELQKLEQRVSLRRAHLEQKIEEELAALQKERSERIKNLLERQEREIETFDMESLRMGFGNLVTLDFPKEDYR
# test-method-notes: Radiolabeled ATP kinase assay, panel of 60 kinases (Table S5)
# Format: biochemical
# measurement-conditions: TAOK3/JIK; 0.1 μM; 10 μM ATP; read-out: % Enzyme Activity (relative to DSMO controls)
Provide only the numeric value, understood in %.

Past entries and their recorded results:
compound	uom	remaining activity at 0.1 µM
Cc1nn(C)c(C)c1-c1c[nH]c2ncc(-c3ccc(CN4CCN(C)CC4)cc3)cc12 [Compound 7ai]	%	102
CN1CCN(Cc2ccc(-c3cnc4[nH]cc(-c5ccc6[nH]ccc6c5)c4c3)cc2)CC1 [Compound 1, reference compound]	%	84
CN1CCN(Cc2ccc(-c3cnc4[nH]cc(-c5ccccc5Cl)c4c3)cc2)CC1 [Compound 7as]	%	69.8
CN1CCN(Cc2ccc(-c3cnc4[nH]cc(-c5ccoc5)c4c3)cc2)CC1 [Compound 7w]	%	95.2
CN1CCN(Cc2ccc(-c3cnc4[nH]cc(-c5ccc6c(c5)OCCO6)c4c3)cc2)CC1 [Compound 7d]	%	67.9
CN1CCN(Cc2ccc(-c3cnc4[nH]cc(-c5cccc(Cl)c5)c4c3)cc2)CC1 [Compound 7ad]	%	92

Please look up its remaining activity at 0.1 µM: CN1CCN(Cc2ccc(-c3cnc4[nH]cc(-c5cnn(Cc6ccccc6)c5)c4c3)cc2)CC1 [Compound 7ah]
77.4

Please look up its remaining activity at 0.1 µM: COc1ccccc1-c1c[nH]c2ncc(-c3ccc(CN4CCN(C)CC4)cc3)cc12 [Compound 7at]
65.5

Please look up its remaining activity at 0.1 µM: CN1CCN(Cc2ccc(-c3cnc4[nH]cc(-c5ccncc5)c4c3)cc2)CC1 [Compound 7n]
94.9
